Catalogue of compounds with associated EC50
- System: phospho-Akt in Panc10.05 (G12D)
- TEST DESCRIPTION: In-Cell Western phospho-Akt, Panc10.05
- Type: cell-based
- EXPERIMENTAL PARAMETERS: Homo sapiens, Panc1005, 1 h; Panc10.05, one hour treatment; read-out: In-Cell Western Panc10.05 (G12D) Akt (P)
READOUT LABEL: EC50

ENTRY SMILES: CCn1nc(C)c(C(=O)Nc2nc(-c3ccc4c(c3)CCC(=O)N4Cc3cccnc3)cs2)c1C
SYSTEM: phospho-Akt in Panc10.05 (G12D)
EXPERIMENTAL VALUE: 17 µM

ENTRY SMILES: Cc1nc(C(=O)Nc2nc(-c3ccc4c(c3)CCC(=O)N4)cs2)c(C)o1
SYSTEM: phospho-Akt in Panc10.05 (G12D)
EXPERIMENTAL VALUE: > 25 µM

ENTRY SMILES: Cc1nn(-c2ccccc2)c(C)c1C(=O)Nc1nc(-c2ccc3c(c2)CCC(=O)N3)cs1
SYSTEM: phospho-Akt in Panc10.05 (G12D)
EXPERIMENTAL VALUE: 15 µM

ENTRY SMILES: CCc1nc(C)c(C(=O)Nc2nc(-c3ccc4c(c3)CCC(=O)N4Cc3cncnc3)cs2)o1
SYSTEM: phospho-Akt in Panc10.05 (G12D)
EXPERIMENTAL VALUE: > 25 µM

ENTRY SMILES: Cc1nc(C(=O)Nc2nc(-c3ccc4c(c3)CCC(=O)N4)cs2)c(C)s1
SYSTEM: phospho-Akt in Panc10.05 (G12D)
EXPERIMENTAL VALUE: > 25 µM

ENTRY SMILES: Cc1nc(C)c(C(=O)Nc2nc(-c3ccc4c(c3)CCC(=O)N4CC3CC3)cs2)o1
SYSTEM: phospho-Akt in Panc10.05 (G12D)
EXPERIMENTAL VALUE: 23 µM

ENTRY SMILES: Cc1nc(C2CCCCC2)sc1C(=O)Nc1nc(-c2ccc3c(c2)CCC(=O)N3)cs1
SYSTEM: phospho-Akt in Panc10.05 (G12D)
EXPERIMENTAL VALUE: > 25 µM

ENTRY SMILES: Cc1nc(C2CC2)oc1C(=O)Nc1nc(-c2ccc3c(c2)CCC(=O)N3Cc2ccccc2)cs1
SYSTEM: phospho-Akt in Panc10.05 (G12D)
EXPERIMENTAL VALUE: 3 µM

---

- Test system: Ishikawa (K-Ras wild type cell line)
- TEST DESCRIPTION: Viability assay (CellTiterBlue, 72 hr) Ishikawa
- Type: cell-based
- EXPERIMENTAL PARAMETERS: Homo sapiens, GI50, CellTiterBlue, Ishikawa K-Ras wild-type
- Method: Viability assays were performed on exemplary compounds and Table 2 below lists exemplary results for selected compounds tested on K-Ras wild type cell lines (Ishikawa, U87-MG, HCC827, and A375) and various K-Ras mutant cell lines (Panc1-G12D; Panc10.05-G12D; HCT116-G31D). […] Cells are counted and seeded at 1000 cells/36 ul medium/well into 384-well microplates. […] After 3 hr, fluorescence (Ex550/Em590) is determined on the Victor Plate Reader (Perkin Elmer). […]
pIC50: −log10 of the molar value.
Catalogue of compounds with associated pIC50

ENTRY SMILES: Cc1nc(C)c(C(=O)Nc2nc(-c3ccc4c(c3)CCC(=O)N4CCCN(C)C)cs2)o1
SYSTEM: Ishikawa (K-Ras wild type cell line)
pIC50: 4.96
--
ENTRY SMILES: CC(=O)Nc1nc(C)c(C(=O)Nc2nc(-c3ccc4c(c3)CCC(=O)N4)cs2)s1
SYSTEM: Ishikawa (K-Ras wild type cell line)
pIC50: < 4.60
--
ENTRY SMILES: Cc1nc(C)c(C(=O)Nc2nc(-c3ccc4c(c3)CCC(=O)N4Cc3nnn[nH]3)cs2)o1
SYSTEM: Ishikawa (K-Ras wild type cell line)
pIC50: < 4.60
--
ENTRY SMILES: Cc1nc(C(C)C)sc1C(=O)Nc1nc(-c2ccc3c(c2)CCC(=O)N3Cc2cccnc2)cs1
SYSTEM: Ishikawa (K-Ras wild type cell line)
pIC50: < 4.60
--
ENTRY SMILES: Cc1nc(C(=O)Nc2nc(-c3ccc4c(c3)CCC(=O)N4)cs2)c(C)o1
SYSTEM: Ishikawa (K-Ras wild type cell line)
pIC50: < 4.60
--
ENTRY SMILES: Cc1nn(C)cc1C(=O)Nc1nc(-c2ccc3c(c2)CCC(=O)N3Cc2cccnc2)cs1
SYSTEM: Ishikawa (K-Ras wild type cell line)
pIC50: < 4.60
--
ENTRY SMILES: CCc1nc(C)c(C(=O)Nc2nc(-c3ccc4c(c3)CCC(=O)N4Cc3cncnc3)cs2)o1
SYSTEM: Ishikawa (K-Ras wild type cell line)
pIC50: < 4.60
--
ENTRY SMILES: Cc1nn(C(C)C)c(C)c1C(=O)Nc1nc(-c2ccc3c(c2)CCC(=O)N3Cc2cccnc2)cs1
SYSTEM: Ishikawa (K-Ras wild type cell line)
pIC50: 5.30

Data origin, for the record: patent US10344026B2
